# Assay text: in vivo
# Assay context: Balb/C nude, mouse, iv, 10 mg/kg
Structures can show the parent of a compound that is named as a salt.
Measured endpoint: half-life (min)

>  <Molecule>
COc1cccc2c1C(=O)c1c(O)c3c(c(O)c1C2=O)C[C@@](O)(C(=O)CO)C[C@@H]3O[C@H]1C[C@H](N)[C@H](O)[C@H](C)O1 [DOX.HCl, doxorubicin hydrochloride]

>  <Measured endpoint>
half-life

>  <Value units>
min

>  <Quantitative result>
16.2

$$$$
